# Experimental parameters: buffer; pH 7.4; 200.0 µM
Metric name: solubility kinetic

{"columns": ["Molecule", "Endpoint value"],
 "data": [
  ["COc1ccc(OCC(=O)Nc2ccc(N3CCC(C)CC3)cc2)cc1", "< 0.4 µg/mL"],
  ["Clc1nc2c(ccc3ccccc32)[nH]1", "> 30.4 µg/mL"],
  ["CCCC(=O)OCC(=O)Nc1ccc([N+](=O)[O-])cc1C#N", "> 43.7 µg/mL"],
  ["O=C(CNC(=O)[C@@H]1Cc2ccccc2CN1)NCc1ccco1", "> 47 µg/mL"],
  ["Cc1ccc(CC(=O)NC2CCN(C)CC2)cc1", "> 37 µg/mL"],
  ["CCN(CC(=O)NCc1ccco1)S(=O)(=O)c1ccc(F)cc1", "> 51.1 µg/mL"],
  ["Cc1ccccc1NC(=O)CN1CCOCC1.Cl", "> 40.6 µg/mL"],
  ["O=C(NC1CCSC1=O)C1CCCCC1 (stereo unspecified)", "> 34.1 µg/mL"],
  ["COc1ccc(NCCc2ccccn2)cc1.Cl", "> 45.2 µg/mL"],
  ["COC(=O)C1CCN(c2cnccn2)CC1", "> 33.2 µg/mL"],
  ["Cc1ccc(OCC(=O)NC(C)c2ccccc2)cc1C (stereo unspecified)", "> 42.5 µg/mL"],
  ["COc1ccc(CCNC(=O)/C=C/c2ccco2)cc1OC", "> 45.2 µg/mL"],
  ["O=C(O)c1ccccc1Sc1ncnc2sccc12", "> 43.3 µg/mL"],
  ["CC(C)(Oc1ccc(CCNC(=O)c2ccc(Cl)cc2)cc1)C(=O)O", "> 54.3 µg/mL"],
  ["CCOCC(=O)N1CCN(Cc2ccc3c(c2)OCO3)CC1", "> 46 µg/mL"],
  ["NS(=O)(=O)c1cccc(NC(=O)Nc2ccc(Cl)cc2)c1", "10.7 µg/mL"],
  ["CN(C)CCNC(=O)c1scc2c1CCCC2.Cl", "> 43.3 µg/mL"],
  ["CC(C)(C)n1cnc2cc(NC(=O)c3ccc(Cl)cc3)ccc21", "33.4 µg/mL"],
  ["CC(C(=O)Nc1ccc(Cl)cc1)N1C(=O)NC2(CCCC2)C1=O (stereo unspecified)", "25.8 µg/mL"],
  ["O=C(CN1C(=O)NC2(CCCCCC2)C1=O)Nc1ccc([N+](=O)[O-])cc1", "13.3 µg/mL"],
  ["COc1ccccc1NC(=O)NC1CCCc2ccccc21 (stereo unspecified)", "0.8 µg/mL"],
  ["COc1ccc(NC(=O)NCc2ccccn2)c(OC)c1", "42.1 µg/mL"],
  ["CCOc1ncccc1C(=O)OCC(=O)c1ccc(Br)s1", "> 55.5 µg/mL"],
  ["COc1ccccc1C(C[N+](=O)[O-])c1c(N)n(C)c(=O)n(C)c1=O (stereo unspecified)", "> 50.1 µg/mL"],
  ["COc1ccc(CNC(=O)CCC(=O)Nc2ccc(Cl)cc2)cc1", "1.3 µg/mL"],
  ["O=C(O)COCC(=O)N1CCN(C(c2ccccc2)c2ccccc2)CC1", "> 55.3 µg/mL"],
  ["CCCC(=O)Nc1cc(OC)c(C(=O)OC)cc1Cl", "> 42.9 µg/mL"],
  ["N#Cc1nc(-c2ccccc2F)oc1N1CCCCC1", "2.3 µg/mL"],
  ["CCOC(=O)C1CCN(CC(=O)N2CCc3ccccc32)CC1", "> 47.5 µg/mL"],
  ["CCCCn1c(N)c(N(CC)C(=O)c2ccccc2C)c(=O)[nH]c1=O", "49.5 µg/mL"],
  ["CC[C@H](C)[C@H](NC(N)=O)C(=O)Nc1ccc(NC(C)=O)cc1", "> 46 µg/mL"],
  ["CCN(CC(=O)NCc1cccs1)C(=O)Cc1ccc(Cl)c(Cl)c1", "> 57.8 µg/mL"],
  ["Cc1ccc(OCC(=O)NCc2ccco2)c([N+](=O)[O-])n1", "37.3 µg/mL"],
  ["O=C(COc1ccc(Cl)cc1Cl)NCC1(N2CCOCC2)CCCCC1", "1.9 µg/mL"],
  ["Cc1c(C(=O)Nc2ccc(Nc3ccccc3)cc2)cccc1[N+](=O)[O-]", "1.3 µg/mL"],
  ["O=C(COc1ccc(Cl)cc1)NCc1ccc(F)cc1", "41.5 µg/mL"]
]}

Data origin: PubChem BioAssay AID1996
